Cited source: ChEMBL document CHEMBL5625235

# Tested on: MDA-MB-468
# protocol-description: Antiproliferative activity against human MDA-MB-468 cells assessed as inhibition of cell proliferation incubated for 72 hrs by MTT assay
# Assay type: functional, cell-based
# condition-description: MDA-MB-468, 72 h
reported-metric: IC50 (µM)

Check out these entries, answers already filled in.
INSERT INTO assay_data (molecule, reported_metric, assay_result) VALUES
  ('CC(C)c1cc(C(=O)N2Cc3ccc(CN4CCN(CCCC(=O)Nc5cccc6c5C(=O)N(C5CCC(=O)NC5=O)C6=O)CC4)cc3C2)c(O)cc1O (configuration not stated)', 'IC50', 3.03),
  ('CC(C)c1cc(C(=O)N2Cc3ccc(CN4CCN(CCCCCCC(=O)Nc5cccc6c5C(=O)N(C5CCC(=O)NC5=O)C6=O)CC4)cc3C2)ccc1O (configuration not stated)', 'IC50', 16.5),
  ('CC(C)c1cc(C(=O)N2Cc3ccc(CN4CCN(C(=O)CNc5cccc6c5CN(C5CCC(=O)NC5=O)C6=O)CC4)cc3C2)c(O)cc1O (configuration not stated)', 'IC50', 5.1);

1. CC(C)c1cc(C(=O)N2Cc3ccc(CN4CCN(CCCCCCC(=O)Nc5cccc6c5C(=O)N(C5CCC(=O)NC5=O)C6=O)CC4)cc3C2)c(O)cc1O (configuration not stated)
2. CC(C)c1cc(C(=O)N2Cc3ccc(CN4CCN(CCCCCC(=O)Nc5cccc6c5C(=O)N(C5CCC(=O)NC5=O)C6=O)CC4)cc3C2)ccc1O (configuration not stated)
3. CC(C)c1cc(C(=O)N2Cc3ccc(CN4CCN(CCCCC(=O)Nc5cccc6c5C(=O)N(C5CCC(=O)NC5=O)C6=O)CC4)cc3C2)c(O)cc1O (configuration not stated)
Asked: Order these by IC50, descending, and give the full ranking. As an answer, provide the labels arranged in the order called for.
Given back: 2, 3, 1
